Each recorded value in this set is attributed to the emibetuzumab library of Makowski et al. (2022).

B1: VH:VL chains; a variant is named by its letters at X, in order (parent)
chain 1: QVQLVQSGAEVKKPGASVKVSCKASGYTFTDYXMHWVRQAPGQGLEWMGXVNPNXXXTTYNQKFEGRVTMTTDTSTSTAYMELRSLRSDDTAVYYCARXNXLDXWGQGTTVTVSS
chain 2: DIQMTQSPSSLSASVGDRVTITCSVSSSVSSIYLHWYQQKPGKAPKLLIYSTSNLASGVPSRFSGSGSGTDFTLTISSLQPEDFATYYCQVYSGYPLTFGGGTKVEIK

variants of: B1; test: yeast display scFab, FACS + sequencing; conditions: with MET
Some of the results follow. The true hit rate is not given.
PROPERTY: antigen binding call

Looking for the measured antigen binding call of VKAAGSVD , can you help?
no binding

Looking for the measured antigen binding call of YRRGSSLY , can you help?
binds

Looking for the measured antigen binding call of AKTKSDGV , can you help?
no binding

Looking for the measured antigen binding call of YRREGSVV , can you help?
binds

Looking for the measured antigen binding call of YRRGGSAV , can you help?
binds

Looking for the measured antigen binding call of VARADSGV , can you help?
no binding

Looking for the measured antigen binding call of VRKKGVSS , can you help?
no binding

Looking for the measured antigen binding call of FKGRGSGV , can you help?
binds

Can you give me antigen binding call for all of these, one by one?
1. YRRRGALS
2. DRGGGDAS
3. VTGTGSSD
4. DARGGSSS
5. YRREGSAV
6. YRRRSSSS

binds
no binding
no binding
no binding
binds
binds
